- Measured target: Pimelobacter simplex PinR (AIY20223.2; SEQ ID NO: 1), his-tagged (AIY-his6)
- Assay name: QD-FRET steroid sensor (QD-PinR + DNA-Cy5), steroid-induced TF-DNA unbinding
- Assay type: biochemical
- Particulars: DNA 4; QD/TF/DNA 1/1/4; read-out: X0
Recorded endpoint: pIC50
// pIC50 here means minus log10 of the molar concentration (mol/L)

stdin: Entry CC(=O)[C@H]1CC[C@H]2[C@@H]3CCC4=CC(=O)CC[C@]4(C)[C@H]3CC[C@]12C has what pIC50?
stdout: 7.31

----------
- Measured target: TetR variant TetRd (TetR-6His, on QD2)
- Assay name: FRET sensor 3 (QD2-TetRd + Cy5-DNA) titrated with aTc; aTc-induced TF-DNA unbinding
- Assay type: biochemical
- Particulars: aTc; sensor 3, QD:TF:DNA 1:4:18; Table 6 fit; read-out: EC50
- Description: The TetO cognate sequence comprises a 19 bp binding region. The 19 bp cognate sequence was flanked by 4-5 bp on each side to ensure binding, resulting in a 28 bp DNA oligo. One of the strands was labeled with the FRET acceptor Cy5 on both the 5′ and 3′ ends. A second 28 bp sequence with no affinity for TetR was similarly labeled to act as the negative control (Table 4). […]
Recorded endpoint: EC50
Value and unit, in that order.

stdin: Reported EC50, molecule Cc1c2c(c(O)c3c(O)cccc13)C(=O)[C@]1(O)C(=O)C(C(N)=O)=C(O)[C@@H](N(C)C)[C@@H]1C2 [aTc, anhydrotetracycline] : ____
stdout: 133 nM
